EC50 listing for selected compounds.
- target: PPARδ-LBD (Homo sapiens, UniProt Q03181)
- Sequence (Q03181 170-441): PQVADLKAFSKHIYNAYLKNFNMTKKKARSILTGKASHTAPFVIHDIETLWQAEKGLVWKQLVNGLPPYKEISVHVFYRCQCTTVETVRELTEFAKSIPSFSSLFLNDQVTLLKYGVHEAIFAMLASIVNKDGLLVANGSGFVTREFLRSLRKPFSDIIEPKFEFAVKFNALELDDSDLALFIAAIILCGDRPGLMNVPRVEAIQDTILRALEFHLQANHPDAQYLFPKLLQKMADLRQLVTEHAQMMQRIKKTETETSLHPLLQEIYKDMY
- measurementProtocol: TR-FRET SRC1 coactivator recruitment assay
- Format: biochemical
- Design: PPARδ-LBD (amino acids 170–441); made in house; host or cells: Rosetta (DE3) pLysS (E. coli)
- conditionDetails: TR-FRET; SRC1 peptide; read-out: EC50, SRC1 recruitment to PPARδ-LBD
recordedEndpoint: EC50 (µM)

>>> reading("O=C(O)CCCc1cc2cc(Cl)ccc2n1S(=O)(=O)c1ccc2ncsc2c1 [lanifibranor]")
4.44
>>> reading("CCO[C@H](COc1ccc(C(F)(F)F)cc1)CSc1ccc(OCC(=O)O)c(C)c1 [seladelpar]")
0.111
